- TEST: NCI Yeast Anticancer Drug Screen. Data for the bub3 strain (AID 167)
- CONDITION LABEL: S. cerevisiae bub3 mutant strain, at 50.0 µM, hits give high values
Compounds without any hit were thinned out: in the full panel of roughly 79,000, 15% have a hit.
I would appreciate it if you labelled entries true (1) when growth inhibition is 10% or higher, otherwise false (0).

COMPOUND	CLASS LABEL
C=Cc1ccc(C)[n+](C[Si](C)(C)O[Si](C)(C)C[n+]2cc(C=C)ccc2C)c1	false (0)
COC(=O)C1=C(c2ccccc2)c2ccc3ccccc3c2C1c1ccccc1 (configuration not stated)	false (0)
CSc1cccc(N=C(C#N)C2=C(O)c3ccccc3C2=O)c1	true (1)
OC(C1=C/C(=C\c2ccncc2)c2ccccc21)c1ccncc1 (configuration not stated)	true (1)
Cn1nnc2c(C(N)=O)ncn2c1=O	false (0)
CC1(C)C(C#N)C1C1=C(N2CCOCC2)[C@]2(C)C(OC(=O)c3ccccc3)CC[C@@H]2C1 (some centres not stated)	true (1)
CC1=C(/C=C/C(O)CC(O)(C(F)(F)F)C(F)(F)F)C(C)(C)CCC1 (configuration not stated)	true (1)
CC(C)/C(Cl)=N/OC(=O)Nc1ccc(Cl)c(Cl)c1	true (1)
O=[N+]([O-])c1cccc(-c2cc(-c3cccs3)cc(-c3ccccc3)n2)c1	false (0)
CN(C)C=NCCN1CCOCC1	false (0)
Cc1c(C#N)c(N)[nH]c(=S)c1C#N	false (0)
Nc1cccc([N+](=O)[O-])c1O	false (0)
O=[N+]([O-])c1ccc(O)c(O)c1	false (0)
Nc1nc2c(ccc3ccccc32)[nH]1	true (1)
CCOP(=O)(OCC)c1cc(NC(=O)c2cc(NC(=O)c3cc(NC(=O)Nc4cc(C(=O)Nc5cc(C(=O)Nc6cc(P(=O)(OCC)OCC)c7cccc(P(=O)(OCC)OCC)c7c6)n(C)c5)n(C)c4)cn3C)cn2C)cc2c(P(=O)(OCC)OCC)cccc12	false (0)
CC/C(=N\O)c1ccc2cc(Cl)c3ccccc3c2c1	true (1)
CC(=O)OCOC(=O)CN(CC(=O)OCOC(C)=O)Cc1cc2c(cc1OC(C)=O)Oc1cc(OC(C)=O)c(CN(CC(=O)OCOC(C)=O)CC(=O)OCOC(C)=O)cc1C21OC(=O)c2ccccc21	false (0)
O=C1CS/C1=C/c1ccccc1	false (0)
Cc1ccc2c(c1)SN(CN1C(=O)c3ccccc3C1=O)N2	false (0)
Nc1cnc(N)nc1	true (1)
CSc1ccc(NC(=O)NNP(=S)(Oc2ccc(C(C)(C)C)cc2)Oc2ccc(C(C)(C)C)cc2)cc1	false (0)
COC(=O)/C(=N\NC(N)=O)C(C(=O)C=C(C)C)C(=O)C(=O)Nc1ccc(Cl)c(Cl)c1 (configuration not stated)	false (0)
CCC(C)(C)C(O)c1ccc2c(c1)OCO2 (configuration not stated)	false (0)
CC(C)(O)/C(=N/O)c1ccc(-c2ccccc2)cc1	false (0)
CCOC(=O)c1c(C(F)(F)F)oc2c1ccc1nc3nonc3nc12	true (1)
CCCCCCCOC(=O)C(N)c1ccccc1 (configuration not stated)	false (0)
CCOCCC12CCCCC1C/C(=N/OC(C)=O)c1ccccc12 (configuration not stated)	true (1)
O=c1[nH]cc(COCC(O)CO)c(=O)[nH]1 (configuration not stated)	false (0)
CC1(C)C(c2ccccc2)C12CCC1(C2=O)C(c2ccccc2)C1(C)C (configuration not stated)	false (0)
CC(O)CNc1ncnc2c1cnn2C (configuration not stated)	false (0)
CC(C)(C)C1=NNC(c2ccccc2)C1 (configuration not stated)	false (0)
OC(Cc1cccnc1)(c1ccccc1)c1cccc2ccccc12 (configuration not stated)	true (1)
COC(=O)c1cccc(Cl)c1C(=O)c1ccc(C)cc1C	true (1)
Cc1ccc(C(=O)CSC2=NCCN2)cc1Cl	false (0)
c1ccc(C2OC3C4COC(O4)C3O2)cc1 (configuration not stated)	false (0)
C/C(Cl)=N\OC(=O)Nc1ccc([N+](=O)[O-])cc1	true (1)
O=C(O)CCSC1=CC(=O)C(SCCC(=O)O)=CC1=O	false (0)
Cc1ccc(S(=O)(=O)c2ccccc2C)s1	false (0)
CCCCNC(=O)C1C(=O)N(CCCC)C(=O)/C1=N\N (configuration not stated)	false (0)
CC(=O)c1cccc(NC(=O)/C(=N\NC(=S)NN)C2C(=O)Nc3ccccc3S2=O)c1 (configuration not stated)	false (0)
